Tested on: ACHN
experiment summary: NCI tumour cell line growth inhibition, 48 h
Activity calls are given as the source filed them. Rule as the data show it: active = GI50 up to about 1.1 µM and inactive = higher.
endpoint label: GI50

Provide each entry's GI50 from the list below.
1. COC(=O)C1CC2c3c(c4ccccc4n3C)CC(C1=O)N2C (stereo unspecified)
2. COc1cc(-c2cc(=O)c3cc4c(cc3[nH]2)OCO4)cc(OC)c1O
3. COc1ccc(C2c3cc4c(cc3OC(Nc3ccccc3)C2C)OCO4)cc1 (stereo unspecified)
4. NCCCN1c2ccccc2Sc2ccc(Cl)cc21
5. Cc1cc(C)n(CN(Cn2nc(C)cc2C)c2ccccc2)n1

Resp:
1. 35.7 µM (inactive)
2. > 10 µM (inactive)
3. 21.8 µM (inactive)
4. 6.18 µM (inactive)
5. 18.4 µM (inactive)

Req: Record request: GI50 value, item CCOC(=O)C1C(O)CC2c3ccccc3-c3ccccc3C21 (stereo unspecified)
Resp: 27.3 µM (inactive)
